- TEST: human hepatoma cell viability loss – ATP luminescence, cytotoxicity control for P. falciparum antimalarial project, primary screen (AID 2303);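 also: 0% = DMSO wells and 100% = digitonin-killed cells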
- MEASUREMENT SETUP: HepG2 viability, 24-48 h, at 10 µM, hits give high values
TEST READOUT: inhibition (%)
Lab book: enter the figure in %, no units written.

## Task Entry under review: CCCCOC(=O)C1=C(C)NC2=C(C(=O)CC(c3ccc(OC)c(OC)c3)C2)C1c1ccc(O)cc1 (stereo not given) . Reported inhibition?
## Result -6

## Task Could you tell me which inhibition is on file for Clc1ccc(Nc2nc(NCc3ccccc3)nc(N/N=C/c3ccccn3)n2)cc1 ?
## Result 41

## Task Bench note: what inhibition did O=[N+]([O-])c1cccc(CNC2CCN(Cc3ccc(C(F)(F)F)cc3)CC2)c1 show?
## Result 0

## Task Could you tell me which inhibition is on file for Brc1cc(Br)c2c(c1)C(NCCCNc1nc3ncccc3[nH]1)CCN2 (stereo not given) ?
## Result 5

## Task // returns reported inhibition for input COc1ccccc1N1CCN(C(C(=O)NCc2ccc3c(c2)OCO3)c2ccc3c(c2)OCCCO3)CC1 (stereo not given)
## Result 15

## Task Tell me the measured inhibition of CNC(=O)c1cnc(Nc2ccc(N3CCN(C)CC3)cc2)nc1Nc1cccc(OC(C)C)c1 , please.
## Result 16

## Task Given the molecule N#Cc1ccc(CN2CCC(Oc3ccc(NC(=O)c4cccs4)cc3)CC2)cc1 , what is its reported inhibition?
## Result 10

## Task Quick one: inhibition for NS(=O)(=O)c1ccc(CNC(=O)c2cnc3c(O)cccc3c2Nc2cccc(NC(=O)c3ccc(Cl)c(Cl)c3)c2)cc1 ?
## Result 56

## Task Please report the recorded inhibition for O=C(NCC1CCN(CCN2CCc3ccc4c(c3C2)OCO4)CC1)c1ccc(-c2ccc(C(F)(F)F)cc2)cc1 .
## Result 66

## Task So what does the record say about inhibition for Cc1cc(NC(=O)c2ccco2)ccc1OC1CCN(Cc2ccccc2)CC1 ?
## Result 3

* * *

- TEST: human hepatoma cell viability loss – ATP luminescence, cytotoxicity control for P. falciparum antimalarial project, primary screen (AID 2303);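 also: 0% = DMSO wells and 100% = digitonin-killed cells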
- MEASUREMENT SETUP: HepG2 viability, 24-48 h, at 10 µM, hits give high values
Record form. Attribute: inhibition. Fill in for each entry.
State just the number; it will be interpreted in %.

## Task Requested read-out: inhibition. Entry: COc1cccc(-c2cnc(-c3ccncc3)nc2C2CCN(Cc3ccc(NC(C)=O)cc3)CC2)c1
## Result 17

## Task Name the recorded inhibition for CCN(CC)CCN(Cc1ccc(-c2ccc(C(F)(F)F)cc2)cc1)C(=O)Cn1c(SCc2ccc(F)cc2)nc(=O)c2ccccc21 .
## Result 47

## Task Look up inhibition: Cc1cc(C2CCN(CCCCNC(=O)c3ccc(NC(=O)c4ccc(Cl)cc4)cc3)CC2)c(C)cc1OCc1nccn1C
## Result 18

## Task Please report the recorded inhibition for NCc1ccc(CNCc2ccc(-c3ccc(-c4nc5ccc(F)cc5[nH]4)cc3)cc2)cc1 .
## Result 12

## Task Bench note: what inhibition did CN(C)C(CNC(=O)c1cc(-c2ccncc2)c(-c2cc3ccccc3[nH]2)o1)c1ccccc1 (stereo not given) show?
## Result 3

## Task So what does the record say about inhibition for COc1ccc(-c2ccc(NC(=O)c3ccc(F)cc3)cc2)cc1CNC(C)C ?
## Result 24

## Task Can you share its inhibition? I mean this compound: CCN(CCN(C)C)Cc1ccc(-c2ccc(NS(=O)(=O)c3cccc(Cl)c3)cc2)cc1
## Result 43

## Task Field request: inhibition | item: CC(=O)Nc1ncc(C(=O)Nc2cccc(-c3ccc(-c4nc5ccccc5[nH]4)cc3)c2)s1
## Result 12

## Task What value of measured inhibition is listed for CC1CCCN1Cc1ccc(-c2ccc3c(=O)cc(CCc4cccc(F)c4F)n(CC(=O)N(C)Cc4ccc(-c5ccc(C(F)(F)F)cc5)cc4)c3n2)cc1 (stereo not given) ?
## Result 0

## Task Looking for the measured inhibition of CCCCN(CCCC)C(=NCCCCCCN=C(/N=C(/N)Nc1ccc(Cl)cc1)N(CCCC)CCCC)/N=C(/N)Nc1ccc(Cl)cc1 , can you help?
## Result -1

## Task inhibition for Cc1ccc(O)cc1Nc1ccnc2cc(-c3csc(CN(C)CCN(C)C)n3)ccc12 ?
## Result 3

## Task Consider the compound Oc1ccccc1CN1CCCC(COC(c2ccc(F)cc2)c2ccc(F)cc2)C1 (stereo not given) and give its measured inhibition.
## Result 19

## Task What value of inhibition has been reported for the following compound? CCOc1cc(CC)ccc1C1CCN(CCN2CCC(NC(=O)c3ccc(-c4ccc(C#N)cc4)cc3)CC2)CC1
## Result 32

## Task I am curious: what inhibition value has been reported for COc1ccc(NC(=O)c2ccc(Br)c(C)c2)cc1N1CCN(CCCc2c[nH]c3ccccc23)CC1 ?
## Result 21

## Task Request the reported inhibition associated with O=C(/C=C/c1ccc(Cl)c(Cl)c1)NCCCCCN1CCC(NC(=O)c2ccc(F)c(F)c2)CC1
## Result 36

## Task Give the measured inhibition of CC(C)(C)C1CC(=O)C[C@@H]2C(=O)N(C3CCCCC3)C(=O)[C@H]12 (stereo not given in full) .
## Result -2

## Task Fill in: inhibition of CN(C)C(=O)c1ccc(CN(Cc2ccc3c(c2)OCCO3)Cc2ccc3c(c2)OCO3)cc1 is ___
## Result -10

## Task Could you tell me which inhibition is on file for O=C1CCCN1CCCNCc1cccc(-c2cccc(-c3nc4ccc(F)cc4[nH]3)c2)c1 ?
## Result 6

## Task Item under review: COc1cc2ccccc2c(OC)c1CCNCCCCNCCc1c(OC)cc2ccccc2c1OC . Reported inhibition?
## Result 100

## Task Please look up its inhibition: COc1cc2nc(NCCc3ccccc3)nc(NCCc3ccccc3)c2cc1OC
## Result 99

## Task Need inhibition, item CCc1cn2c3c(cc(C(=O)N[C@@H](Cc4ccccc4)[C@H](O)CNC4CCOCC4)cc13)N(CC(F)(F)F)S(=O)(=O)CC2
## Result 4

## Task Fill blank: measured inhibition of the compound Cc1cccc2[nH]c(-c3cccc(-c4cccc(NC(=O)C5CC(=O)Nc6ccccc65)c4)c3)nc12 (stereo not given) is ____.
## Result 13

## Task Look at this compound and give its reported inhibition. N#CC1(c2ccccc2)CCN(c2nc(NCCCN3CCCC3=O)nc(N3CCCC4CCCCC43)n2)CC1 (stereo not given)
## Result -2

## Task Please report the recorded inhibition for C#CCN(Cc1cc2c(=O)[nH]c(N)nc2cc1C)c1ccc(C(=O)N[C@@H](CCC(=O)O)C(=O)O)cc1 .
## Result 28

## Task # get_value(readout='inhibition', item= Cc1cccc2[nH]c(-c3ccc(-c4ccc(NC(=O)Nc5cccc(C#N)c5)cc4)s3)nc12 )
## Result 33

## Task Which value of inhibition has been reported for CC(CCc1ccccc1)NCC(O)c1cccc([N+](=O)[O-])c1 (stereo not given) in the records?
## Result -2

## Task Item under review: CCN1CCN(c2cc(C)c3cc(NC(=O)c4cc(OC)cc(OC)c4)ccc3n2)CC1 . Reported inhibition?
## Result 0

## Task Item under review: CC(C)N1CCN(C(CN2CCN(CCCOc3cccc(F)c3)CC2)c2ccc(F)cc2)CC1 (stereo not given) . Reported inhibition?
## Result 38

## Task Entry under review: Clc1ccc(OC2CCC(Cn3ccnc3)(c3ccc(Cl)cc3Cl)CC2)c(Cl)c1 (stereo not given) . Reported inhibition?
## Result 4

## Task Reported inhibition, compound CC(C)CN(Cc1c(O)ccc2[nH]c(-c3ccc(F)cc3F)nc12)CC(C)C : ____
## Result 11
